# target: C-terminal deleted GST-BCL-2 (UniProt P10415)
# measurement.notes: fluorescence polarization direct binding
Where no end group is shown, it is not given here. The star is where a group is joined. FITC = O=C1OC2(c3ccc(O)cc3Oc3cc(O)ccc32)c2ccc(NC(=S)*)cc21; βAla = NCCC(=O)O
measurement.name: Kd (nM)
Answer with a number only, understood to be in nM.

Q) Query (binder): {FITC-βAla}-EDIIRNIARHLAQVGDSMDRSI (peptide, UniProt P55957 80-101, looked up, domain: BH3; also called FITC-BID BH3; FITC-labeled BID BH3 peptide) [FITC-labeled unmodified BID BH3 peptide] ; field requested: Kd
A) 220
